Provide the reported yeast fitness of each item.
B1: tRNA (parent)
chain: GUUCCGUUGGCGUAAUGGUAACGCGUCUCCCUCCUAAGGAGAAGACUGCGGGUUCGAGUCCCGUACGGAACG

Variants of: B1
Test: yeast fitness relative to wild type (ratio to wild type); higher = fitter; tRNA-Arg(CCU), competitive growth, 37 C, YPD
Variants at the floor of the assay were thinned out.
In your answer, state the number alone without any accompanying words.

Data request: Entry U2G C27U C46U G58A has what yeast fitness?
Data returned: 0.662

Data request: Consider next the variant U3C A45C G48A in the same way.
Data returned: 0.937

Data request: Same again, this time with U7A C61U
Data returned: 0.66

Data request: Would you mind doing G38C C60U as well?
Data returned: 0.571

Data request: Lookup U2A G9C A14C C34U C60G
Data returned: 0.551

Data request: // query: A15G U47A
Data returned: 0.916

Data request: What about U54C G68C ?
Data returned: 0.776

Data request: Then what about the variant C27U C62U G67A ?
Data returned: 0.573

Data request: Next entry: C31U C49G
Data returned: 0.914

Data request: Again, but for U26C A57G
Data returned: 0.984

Data request: Query C5A U59G next
Data returned: 0.746

Data request: Consider next the variant G6A C31U G51A in the same way.
Data returned: 0.599

Data request: One more variant: A45C C61U
Data returned: 0.992

Data request: Can you handle C30G C46G next?
Data returned: 0.693

Data request: Continue with U8C A43C C49G
Data returned: 0.597

Data request: Then what about the variant U8A G10C A20U G41U C62U G68C ?
Data returned: 0.799

Data request: Another variant: A20C A40G
Data returned: 0.647

Data request: Next up: C5G A40G
Data returned: 0.755

Data request: How about this variant: C4U C11U C34G A40C G51C
Data returned: 0.534

Data request: One more variant: A43G G48C
Data returned: 0.829
